readout-kind: melting point

compound	readout-kind	reported-result
Cc1[nH]c(C)c(-c2ccc(Oc3ccc(OC(F)(F)F)cc3)cc2)c(=O)c1Br	melting point	284 to 286 °C
COC(=O)c1cc(Cl)c(Cl)cc1C#N	melting point	120 to 123 °C
Cc1nc2c3c(ccc2n1C)[C@@H](O)[C@H](O)[C@@H](c1ccccc1)O3	melting point	262 °C
CC(C)(C)c1ccc(-c2cc(-c3cccs3)[nH]n2)cc1	melting point	61 to 65 °C
N#Cc1c(Nc2cccc(Cl)c2)nn(Cc2ccccc2)c1N	melting point	234 to 236 °C
CN(C)C1CCN(Cc2ccc3c(c2)Cc2c(-c4cccs4)n[nH]c2-3)CC1	melting point	96 to 98 °C
CCOC(CCn1c(-c2ccc(F)cc2)c(-c2ccccc2)c(C(=O)Nc2ccccc2)c1C(C)C)OCC	melting point	125 to 128 °C
CCOC(=O)c1cn(C2CC2)c2c(F)c(N3CC(O)C3)c(F)cc2c1=O	melting point	260 to 270 °C
COC(=O)c1n[nH]c(=O)c2cc(OC)ccc12	melting point	222 to 225 °C
CC(C)(C)OC(=O)N1CCN2C(=O)OC(c3ccccc3)(c3ccccc3)C2C1 (stereo not given)	melting point	151 to 152 °C

---

Parameter melting point: see the listing below.

compound	melting point
CCCCOP(=O)(CCCC1(c2ccccn2)c2ccccc2-c2ccccc21)OCCCC	126 to 128 °C
BrCCc1cc(Br)c(CCBr)cc1Br	106 to 108 °C
COc1ccc(C(CC(=O)O)N2Cc3ccccc3C2=O)cc1OC (stereo not given)	146 to 148 °C
Cc1cc(C)n(-c2nc(Nc3ccc(Cl)cc3)c3ccccc3n2)n1	209 to 211 °C
Nc1ncnc2c1c(I)cn2COCCO	169 to 170 °C
O=C(NC(Cc1ccccc1)C(=O)O)c1ccc2cc(NCc3ccccc3)ccc2c1 (stereo not given)	172 °C
CN(CCOc1ccc(C=O)cc1)c1ncccn1	74 to 75 °C
COc1cc(N2CCN([C@H](C)c3ccc(OC)c(OC)c3)CC2)ccc1Cl	172 to 176 °C
Cc1c(-c2ccncc2)[nH]c(-c2ccncc2)c1C(C)O (stereo not given)	250 to 252 °C
NC(=N[N+](=O)[O-])NCCSCc1csc(NC(N)=NCC(F)(F)Cl)n1	112 to 116 °C

---

compound	melting point
CCOCC(=O)Nc1ccc(Br)c(-n2nc(CC)n(Cc3ccc(-c4ccccc4S(=O)(=O)NC(=O)OC(C)(C)C)cc3F)c2=O)c1	132 to 134 °C
CC(Oc1ccc(F)cc1Cl)c1ccnc2ncnn12 (centres undefined)	89 to 91 °C
COc1ccc(-c2nc(Sc3ccccc3OC)[nH]c2-c2ccc(OC)cc2)cc1	161 °C
O=C1C[C@H]2CCN(Cc3ccccc3)C[C@H]2c2ccc(F)cc21 (relative stereo)	> 220 °C
Cc1c(O)c(C=O)c2nc3c(O)ccc(C(=O)NCCN(C)C)c3nc2c1O	> 250 °C
CC#Cc1ccc(-c2ccc(-c3ccc(CCCCC)c(F)c3F)cc2)cc1	127 °C
CN1CCN(S(=O)(=O)c2ccc(Nc3ncnc4cc(Cl)ccc34)cc2)CC1	237 to 239 °C
Cc1ccc(-c2ccc(S(C)(=O)=O)c(F)c2)n1-c1ccc(-c2ccoc2)cc1	147 to 150 °C
COC(=O)c1nn(-c2ccc(Cl)cc2Cl)c(-c2ccc(Cl)cc2)c1CF	114 °C
